experimental.target: D(1B) dopamine receptor (Homo sapiens, UniProt P21918)
Sequence (P21918 whole entry): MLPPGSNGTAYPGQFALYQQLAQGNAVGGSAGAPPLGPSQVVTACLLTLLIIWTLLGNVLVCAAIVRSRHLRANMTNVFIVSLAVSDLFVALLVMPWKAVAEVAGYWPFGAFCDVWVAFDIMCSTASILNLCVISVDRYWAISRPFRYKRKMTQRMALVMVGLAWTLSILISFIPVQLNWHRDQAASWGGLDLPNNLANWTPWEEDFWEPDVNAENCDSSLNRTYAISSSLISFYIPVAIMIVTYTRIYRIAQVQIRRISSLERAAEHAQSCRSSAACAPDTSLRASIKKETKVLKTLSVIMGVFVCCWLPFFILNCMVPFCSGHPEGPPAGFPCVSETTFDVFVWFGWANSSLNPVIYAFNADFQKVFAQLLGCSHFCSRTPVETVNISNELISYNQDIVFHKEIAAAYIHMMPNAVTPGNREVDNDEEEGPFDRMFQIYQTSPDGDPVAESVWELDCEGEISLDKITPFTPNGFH
Just a reminder that ties go to false: only Ki strictly below 500 nM counts as true.

# count of solved cases: 5
>  <compound.smiles>
OC1(c2ccc(Cl)c(C(F)(F)F)c2)CCN(CCCC(c2ccccc2)c2ccccc2)CC1

>  <qualitative.label>
true

$$$$
>  <compound.smiles>
OC1(c2ccc(Cl)c(C(F)(F)F)c2)CCN(CCCCC(c2ccc(F)cc2)c2ccc(F)cc2)CC1

>  <qualitative.label>
false

$$$$
>  <compound.smiles>
OC1(c2ccc(Cl)c(C(F)(F)F)c2)CCN(CCCN(c2ccc(F)cc2)c2ccc(F)cc2)CC1

>  <qualitative.label>
true

$$$$
>  <compound.smiles>
OC1(c2ccc(Cl)c(C(F)(F)F)c2)CCN(CCCC(c2ccc(F)cc2)c2ccc(F)cc2)CC1

>  <qualitative.label>
true

$$$$
>  <compound.smiles>
OC1(c2ccc(Cl)c(C(F)(F)F)c2)CCN(CCCCN(c2ccc(F)cc2)c2ccc(F)cc2)CC1

>  <qualitative.label>
false

$$$$

### Prompt Determine if `COc1ccc(N(CCCCN2CCC(O)(c3ccc(Cl)c(C(F)(F)F)c3)CC2)c2ccc(OC)cc2)cc1` shows Ki strictly lower than 500 nM.
### Response false
